# METHOD: Solubility of the compound at pH 6.8
# Assay type: physicochemical
# CONDITION_LABEL: buffer
solubility overview
QUANTITY_KIND: solubility (µg/mL)

[[record]]
structure_string = "O=C(O)c1csc(-n2nc(-c3ccccc3)c3c2-c2ccccc2C3)n1"
meas_value = 57

[[record]]
structure_string = "O=C(O)c1csc(-n2nc3c(c2-c2ccccc2)CCc2ccccc2-3)n1"
meas_value = 10

[[record]]
structure_string = "Nc1c(-c2ccccc2)nn(-c2nc(C(=O)O)cs2)c1-c1ccccc1"
meas_value = 1010

[[record]]
structure_string = "Cc1c(-c2ccccc2)nn(-c2nc(C(=O)O)cs2)c1-c1ccccc1"
meas_value = 401


* * *

# ASSAY_SYSTEM: UniProt:P33261
# Sequence (P33261 whole entry): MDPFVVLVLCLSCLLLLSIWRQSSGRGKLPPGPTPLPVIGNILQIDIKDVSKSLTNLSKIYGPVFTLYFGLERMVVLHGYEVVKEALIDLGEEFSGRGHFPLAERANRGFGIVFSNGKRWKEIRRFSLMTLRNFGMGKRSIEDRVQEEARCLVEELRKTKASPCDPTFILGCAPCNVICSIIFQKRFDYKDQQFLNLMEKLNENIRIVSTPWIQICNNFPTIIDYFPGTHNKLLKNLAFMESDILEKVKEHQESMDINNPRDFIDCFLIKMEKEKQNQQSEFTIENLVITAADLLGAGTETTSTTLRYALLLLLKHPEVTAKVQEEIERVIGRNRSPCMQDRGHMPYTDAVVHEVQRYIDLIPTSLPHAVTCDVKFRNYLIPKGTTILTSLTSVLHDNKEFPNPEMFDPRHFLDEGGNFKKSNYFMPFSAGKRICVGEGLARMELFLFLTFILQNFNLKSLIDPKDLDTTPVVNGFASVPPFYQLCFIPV
QUANTITY_KIND: IC50 (µM)

[[record]]
structure_string = "Nc1c(-c2ccccc2)nn(-c2nc(C(=O)O)cs2)c1-c1ccccc1"
meas_value = 6.14


* * *

# ASSAY_SYSTEM: Prostaglandin E2 receptor EP1 subtype (Homo sapiens)
# METHOD: Antagonist activity human EP1 receptor assessed as inhibition of PGE2-induced effect at 1 uM by reporter gene assay relative to control
QUANTITY_KIND: inhibition (%)

[[record]]
structure_string = "Cc1c(-c2ccccc2)nn(-c2nc(C(=O)O)co2)c1-c1ccccc1"
meas_value = 33

[[record]]
structure_string = "Cc1c(-c2ccccc2)nn(-c2cccc(C(=O)O)n2)c1-c1ccccc1"
meas_value = 48

[[record]]
structure_string = "Cc1c(-c2ccccc2)nn(-c2nc(C(=O)O)cs2)c1-c1cccnc1"
meas_value = 34

[[record]]
structure_string = "CCc1c(-c2ccccc2)nn(-c2nc(C(=O)O)cs2)c1-c1ccccc1"
meas_value = -4

[[record]]
structure_string = "Cc1c(-c2ccccc2)nn(-c2nc(C(=O)O)cs2)c1-c1cncnc1"
meas_value = 24

[[record]]
structure_string = "Cc1c(-c2ccccc2)nn(-c2cncc(C(=O)O)c2)c1-c1ccccc1"
meas_value = 26

[[record]]
structure_string = "COc1c(-c2ccccc2)nn(-c2nc(C(=O)O)cs2)c1-c1ccccc1"
meas_value = 18

[[record]]
structure_string = "Cc1c(-c2ccccc2)nn(-c2nc(C(=O)O)cs2)c1-c1cnn(C)c1"
meas_value = 8

[[record]]
structure_string = "Cc1c(-c2ccccc2)nn(-c2nc(C(=O)O)cs2)c1-c1ccc(N)cc1"
meas_value = 10

[[record]]
structure_string = "Cc1c(-c2ccccc2)nn(-c2ccc(C(=O)O)o2)c1-c1ccccc1"
meas_value = 24


* * *

solubility overview
# METHOD: Solubility of the compound in water
# Assay type: physicochemical
QUANTITY_KIND: solubility (µg/mL)

[[record]]
structure_string = "O=C(O)c1csc(-n2nc3c(c2-c2ccccc2)CCc2ccccc2-3)n1"
quantity_kind = "solubility"
units_label = "µg/mL"
meas_value = 20

[[record]]
structure_string = "O=C(O)c1csc(-n2nc(-c3ccccc3)c3c2-c2ccccc2C3)n1"
quantity_kind = "solubility"
units_label = "µg/mL"
meas_value = 4

[[record]]
structure_string = "Nc1c(-c2ccccc2)nn(-c2nc(C(=O)O)cs2)c1-c1ccccc1"
quantity_kind = "solubility"
units_label = "µg/mL"
meas_value = 865

[[record]]
structure_string = "Cc1c(-c2ccccc2)nn(-c2nc(C(=O)O)cs2)c1-c1ccccc1"
quantity_kind = "solubility"
units_label = "µg/mL"
meas_value = 129


* * *

# METHOD: Intrinsic clearance in human liver microsomes
# Assay type: ADME
# CONDITION_LABEL: read-out: CLH
CLint scaled overview
QUANTITY_KIND: CLint scaled

[[record]]
structure_string = "O=C(O)c1csc(-n2nc(-c3ccccc3)c3c2-c2ccccc2C3)n1"
quantity_kind = "CLint scaled"
meas_value = "425 mL/min/kg"

[[record]]
structure_string = "O=C(O)c1csc(-n2nc3c(c2-c2ccccc2)CCc2ccccc2-3)n1"
quantity_kind = "CLint scaled"
meas_value = "149 mL/min/kg"

[[record]]
structure_string = "Cc1c(-c2ccccc2)nn(-c2nc(C(=O)O)cs2)c1-c1ccccc1"
quantity_kind = "CLint scaled"
meas_value = "35 mL/min/kg"

[[record]]
structure_string = "Nc1c(-c2ccccc2)nn(-c2nc(C(=O)O)cs2)c1-c1ccccc1"
quantity_kind = "CLint scaled"
meas_value = "19 mL/min/kg"


* * *

Papp overview
# METHOD: Apparent permeability in MDCK cells
# Assay type: ADME, cell-based, Canis lupus familiaris
# CONDITION_LABEL: dog
QUANTITY_KIND: Papp (×10⁻⁶ cm/s)

[[record]]
structure_string = "Cc1c(-c2ccccc2)nn(-c2nc(C(=O)O)cs2)c1-c1ccccc1"
meas_value = 51.6

[[record]]
structure_string = "Nc1c(-c2ccccc2)nn(-c2nc(C(=O)O)cs2)c1-c1ccccc1"
meas_value = 12.2


* * *

# ASSAY_SYSTEM: Prostaglandin E2 receptor EP3 subtype (Homo sapiens)
# Sequence (P43115 whole entry): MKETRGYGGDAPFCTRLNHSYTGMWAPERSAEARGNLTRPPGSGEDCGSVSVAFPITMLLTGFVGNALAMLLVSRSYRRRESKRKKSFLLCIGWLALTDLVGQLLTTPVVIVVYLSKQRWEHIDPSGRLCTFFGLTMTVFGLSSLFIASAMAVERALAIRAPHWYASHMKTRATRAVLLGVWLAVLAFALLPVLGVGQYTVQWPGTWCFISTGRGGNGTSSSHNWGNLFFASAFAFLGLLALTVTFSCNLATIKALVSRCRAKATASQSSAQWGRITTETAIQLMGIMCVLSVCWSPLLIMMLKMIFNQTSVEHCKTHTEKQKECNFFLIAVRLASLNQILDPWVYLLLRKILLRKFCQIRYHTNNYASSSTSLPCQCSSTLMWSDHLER
pKi: −log10 of the molar value.
QUANTITY_KIND: pKi

[[record]]
structure_string = "Nc1c(-c2ccccc2)nn(-c2nc(C(=O)O)cs2)c1-c1ccccc1"
meas_value = "< 5.30"


* * *

# METHOD: Cmax in rat at 10 mg/kg, po
# Type: ADME, organism-based
# Parameters: dose 10 mg/kg, route oral
# CONDITION_LABEL: in vivo
QUANTITY_KIND: Cmax (µM)

[[record]]
structure_string = "Nc1c(-c2ccccc2)nn(-c2nc(C(=O)O)cs2)c1-c1ccccc1"
meas_value = 6.33


* * *

# ASSAY_SYSTEM: Prostaglandin E2 receptor EP1 subtype (Homo sapiens, UniProt P34995)
# Sequence (P34995 whole entry): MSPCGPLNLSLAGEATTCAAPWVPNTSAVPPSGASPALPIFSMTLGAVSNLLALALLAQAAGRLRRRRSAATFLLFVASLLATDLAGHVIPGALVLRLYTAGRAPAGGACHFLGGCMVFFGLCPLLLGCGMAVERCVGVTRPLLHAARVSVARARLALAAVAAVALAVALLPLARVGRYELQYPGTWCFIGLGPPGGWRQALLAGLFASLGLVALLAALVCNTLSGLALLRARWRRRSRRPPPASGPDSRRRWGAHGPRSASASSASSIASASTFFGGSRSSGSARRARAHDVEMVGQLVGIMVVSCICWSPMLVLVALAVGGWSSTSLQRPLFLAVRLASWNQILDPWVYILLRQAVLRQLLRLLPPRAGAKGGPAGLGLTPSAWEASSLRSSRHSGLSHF
# METHOD: Antagonist activity human EP1 receptor assessed as inhibition of PGE2-induced effect by reporter gene assay
Doc: threshold 80 nM (exclusive). Items with IC50 beneath it return t; others return f.

[[record]]
structure_string = "Cc1c(-c2ccccc2)nn(-c2nc(C(=O)O)cs2)c1-c1cccs1"
class_assignment = "f"

[[record]]
structure_string = "O=C(O)c1csc(-n2nc(-c3ccccc3)c3c2-c2ccccc2CC3)n1"
class_assignment = "f"

[[record]]
structure_string = "O=C(O)c1csc(-n2nc(-c3ccccc3)c(O)c2-c2ccccc2)n1"
class_assignment = "t"

[[record]]
structure_string = "O=C(O)c1csc(-n2nc(-c3ccccc3)c(C(F)(F)F)c2-c2ccccc2)n1"
class_assignment = "f"

[[record]]
structure_string = "O=C(O)c1csc(-n2nc(-c3ccccc3)c(I)c2-c2ccccc2)n1"
class_assignment = "f"

[[record]]
structure_string = "O=C(O)c1csc(-n2nc(-c3ccccc3)c3c2-c2ccccc2C3)n1"
class_assignment = "t"

[[record]]
structure_string = "Cc1c(-c2ccccc2)nn(-c2nc(C(=O)O)cs2)c1-c1cccc(F)c1"
class_assignment = "t"

[[record]]
structure_string = "O=C(O)c1csc(-n2nc(-c3ccccc3)c3oc4ccccc4c32)n1"
class_assignment = "t"

[[record]]
structure_string = "Cc1c(-c2ccccc2)nn(-c2nc(C(=O)O)cs2)c1-c1ccc(F)cc1"
class_assignment = "f"

[[record]]
structure_string = "Cc1c(-c2ccccc2)nn(-c2nc(/C=C/C(=O)O)cs2)c1-c1ccccc1"
class_assignment = "f"

[[record]]
structure_string = "Cc1c(-c2ccccc2)nn(-c2ccc(C(=O)O)s2)c1-c1ccccc1"
class_assignment = "f"

[[record]]
structure_string = "O=C(O)c1csc(-n2nc(-c3ccccc3)c(Cl)c2-c2ccccc2)n1"
class_assignment = "t"

[[record]]
structure_string = "O=C(O)c1csc(-n2nc(-c3ccccc3)c(Br)c2-c2ccccc2)n1"
class_assignment = "t"

[[record]]
structure_string = "Cc1sc(-n2nc(-c3ccccc3)c(C)c2-c2ccccc2)nc1C(=O)O"
class_assignment = "f"

[[record]]
structure_string = "Nc1c(-c2ccccc2)nn(-c2nc(C(=O)O)cs2)c1-c1ccccc1"
class_assignment = "t"

[[record]]
structure_string = "O=C(O)c1csc(-n2nc3c(c2-c2ccccc2)CCc2ccccc2-3)n1"
class_assignment = "t"

[[record]]
structure_string = "O=C(O)c1csc(-n2nc(-c3ccccc3)c(F)c2-c2ccccc2)n1"
class_assignment = "t"

